Every entry's value here was drawn from patent EP4763847A1.

# Tested on: HCT116 MTAP KO
# assay-text: Cell proliferation inhibition (CellTiter Glo), HCT116 MTAP KO cells
# Format: cell-based
# measurement-context: Homo sapiens, HCT-116, 144 h, cultured 6 days with compound
# IC50 per entry
recorded-endpoint: IC50 (µM)

1. CNC(N)=Nc1ccc(C(=O)N(Cc2ccccc2)[C@H](C)c2ccccc2F)cn1 | 0.445
2. CNC(N)=Nc1ccc(C(=O)N(Cc2ccc(-c3cnc(C)nc3)cn2)[C@H](C)c2ccccc2F)cn1 | 0.15
3. CNC(N)=Nc1ccc(C(=O)N(Cc2ccc(C(C)F)cn2)[C@H](C)c2ccccc2F)cn1 (some centres unmarked) | 0.041
4. CNC(N)=Nc1ccc(C(=O)N(Cc2ccc(C(F)(F)F)cn2)C2CCCc3cccnc32)cn1 (centres unmarked) | 0.018
5. CN/C(N)=N\c1ccc(C(=O)N(Cc2ccc(C(F)(F)F)cn2)C2CCCc3nccnc32)cn1 (centres unmarked) | 0.192
6. CN/C(N)=N\c1ccc(C(=O)N(Cc2ccc(C(F)(F)F)cn2)[C@H]2CCCc3ccccc32)cn1 | 0.612
7. CNC(N)=Nc1ccc(C(=O)N(Cc2ccc(C)nc2)[C@H](C)c2ccccc2F)cn1 | 0.658
8. CNC(N)=Nc1ccc(C(=O)N(Cc2ccc(C(F)(F)F)cn2)C(C)c2cccc(F)c2)cn1 (centres unmarked) | 0.398

====

# IC50 per entry
# Test system: HCT116-WT
# assay-text: Cell proliferation inhibition (CellTiter Glo), HCT116-WT cells
# Format: cell-based
# measurement-context: 144 h, cultured 6 days with compound
recorded-endpoint: IC50 (nM)

1. CNC(N)=Nc1ccc(C(=O)N(Cc2ccncc2)[C@H](C)c2ccccc2F)cn1 | 8230
2. CCC(c1ccccc1F)N(Cc1ccc(C(F)(F)F)cn1)C(=O)c1ccc(N=C(N)NC)nc1 (stereo not drawn) | 428
3. CN/C(N)=N\c1ccc(C(=O)N(Cc2ccc(-c3ccc(N4CCN(C)CC4)nc3)cn2)[C@H](C)c2ccccc2F)cn1 | 1570
4. CN/C(N)=N\c1ccc(C(=O)N(Cc2ccc3nc(C)sc3c2)[C@H](C)c2ccccc2F)cn1 | 1860
5. CNC(N)=Nc1ccc(C(=O)N(Cc2ccc(C(F)(F)F)cn2)[C@@H]2CCc3ccccc32)cn1 | 1710
6. CN/C(N)=N\c1ccc(C(=O)N(Cc2ccc(C(F)(F)F)cn2)C(c2ccccc2F)C2CC2)cn1 (stereo not drawn) | 912
7. CNC(N)=Nc1ccc(C(=O)N(Cc2ccc(C(F)(F)F)cn2)[C@H](C)c2ccccc2F)cn1 | 421
8. CNC(N)=Nc1ccc(C(=O)N(Cc2ccc(-c3cnc4c(cnn4C)c3)cn2)[C@H](C)c2ccccc2F)cn1 | 1080
9. NC(=Nc1ccc(C(=O)N(Cc2ccc(C(F)(F)F)cn2)C2CCCc3ccccc32)cn1)NO (stereo not drawn) | 307
10. NC(=Nc1ccc(C(=O)N(Cc2ccc(C(F)(F)F)cn2)C2CCCc3cccnc32)cn1)NO (stereo not drawn) | 115
11. CNC(N)=Nc1ccc(C(=O)N(Cc2ccc(-c3cnn(C)c3)cn2)[C@H](C)c2ccccc2F)cn1 | 2520
12. CN/C(N)=N\c1ccc(C(=O)N(Cc2ccc(C(C)(F)F)cn2)[C@H](C)c2ccccc2F)cn1 | 345
13. CN/C(N)=N\c1ccc(C(=O)N(Cc2ccc3nn(C)cc3c2)[C@H](C)c2ccccc2F)cn1 | 5700
14. CNC(N)=Nc1ccc(C(=O)N(Cc2ccc(C(F)(F)F)cn2)C(C)c2ccccc2C(F)(F)F)cn1 (stereo not drawn) | 3180
15. CC(c1ncccn1)N(Cc1ccc(C(F)(F)F)cn1)C(=O)c1ccc(N=C(N)NO)nc1 (stereo not drawn) | 210
16. CNC(N)=Nc1ccc(C(=O)N(Cc2ccc(C(F)(F)F)cn2)C(C)c2cccc(F)c2)cn1 (stereo not drawn) | 2790
17. CNC(N)=Nc1ccc(C(=O)N(Cc2ccc(C)nc2)[C@H](C)c2ccccc2F)cn1 | 7720
18. CNC(N)=Nc1ccc(C(=O)N(Cc2ccc(C(F)(F)F)cn2)C(C)c2ccccc2F)cn1 (stereo not drawn) | 982
19. CNC(N)=Nc1ccc(C(=O)N(Cc2ccc(C(F)(F)F)cn2)C(C)c2ncccn2)cn1 (stereo not drawn) | 2250
20. CNC(N)=Nc1ccc(C(=O)N(Cc2ccc(-c3cnn(C(F)(F)F)c3)cn2)[C@H](C)c2ccccc2F)cn1 | 643
21. CNC(N)=Nc1ccc(C(=O)N(Cc2ccc(F)cc2)[C@H](C)c2ccccc2F)cn1 | 2340
22. CNC(N)=Nc1ccc(C(=O)N(Cc2ccc3c(cnn3C)c2)[C@H](C)c2ccccc2F)cn1 | 667
23. CC(c1ncccn1)N(Cc1ccc(C(F)(F)F)cn1)C(=O)c1ccc(N=C(N)N)nc1 (stereo not drawn) | 1520
24. CN/C(N)=N\c1ccc(C(=O)N(Cc2ccc(C(F)(F)F)cn2)C(C)c2ncccc2F)cn1 (single isomer, unassigned) | 569
25. CNC(N)=Nc1ccc(C(=O)N(Cc2ccc(C(C)F)cn2)[C@H](C)c2ccccc2F)cn1 (stereo partly drawn) | 744
26. CNC(N)=Nc1ccc(C(=O)N(Cc2ccc(C(F)(F)F)cn2)C2CCCc3cccc(F)c32)cn1 (stereo not drawn) | 504
27. CNC(N)=Nc1ccc(C(=O)N(Cc2ccc(C(F)(F)F)cn2)c2cccc3nccnc23)cn1 | 512
28. CNC(N)=Nc1ccc(C(=O)N(Cc2ccc(C(F)(F)F)cn2)C(C)c2ncccc2F)cn1 (racemic) | 971
29. CNC(N)=Nc1ccc(C(=O)N(Cc2ccc(C(F)(F)F)cn2)C2CCCc3ccccc32)cn1 (stereo not drawn) | 769
30. CNC(N)=Nc1ccc(C(=O)N(Cc2ccc3cnccc3c2)[C@H](C)c2ccccc2F)cn1 | 1090

====

# IC50 per entry
# Tested on: HCT116-WT
# assay-text: Cell proliferation inhibition (CellTiter Glo), HCT116-WT cells
# Assay type: cell-based
# measurement-context: 144 h, cultured 6 days with compound
recorded-endpoint: IC50 (µM)

1) CNC(N)=Nc1ccc(C(=O)N(Cc2ccc(C(F)(F)F)cn2)C2CCOc3ccccc32)cn1 (stereo not shown) [Compound 86] | 0.867
2) CNC(N)=Nc1ccc(C(=O)N(Cc2ccc(C(F)(F)F)cn2)C2CCOc3cccnc32)cn1 (stereo not shown) [Compound 90] | 1.52
3) CN/C(N)=N\c1ccc(C(=O)N(Cc2ccc(C(F)(F)F)cn2)[C@@H]2CCCc3ccccc32)cn1 [Compound 96] | 0.366
4) CNC(N)=Nc1ccc(C(=O)N(Cc2ccc(C(F)(F)F)cn2)c2cccc3cccnc23)cn1 [Compound 45] | 0.275
5) CNC(N)=Nc1ccc(C(=O)N(Cc2ccc(C(F)(F)F)cn2)C2CCCc3cccnc32)cn1 (stereo not shown) [Compound 59] | 0.413
6) CN/C(N)=N\c1ccc(C(=O)N(Cc2ccc(C(F)(F)F)cn2)[C@H](C)c2ccc(F)cc2F)cn1 [Compound 82] | 0.226
7) CN/C(N)=N\c1ccc(C(=O)N(Cc2ccc(C(C)(C)F)cn2)[C@H](C)c2ccccc2F)cn1 [Compound 75] | 0.844

====

# IC50 per entry
# Test system: HCT116 MTAP KO
# assay-text: Cell proliferation inhibition (CellTiter Glo), HCT116 MTAP KO cells
# Type: cell-based
# measurement-context: Homo sapiens, HCT-116, 144 h, cultured 6 days with compound
recorded-endpoint: IC50

1) CNC(N)=Nc1ccc(C(=O)N(Cc2ccc(C(F)(F)F)cn2)C2CCOc3ccccc32)cn1 (stereo not shown) [Compound 86] | 0.06 µM
2) CNC(N)=Nc1ccc(C(=O)N(Cc2cccc(F)c2)[C@H](C)c2ccccc2F)cn1 [Compound 110] | 0.508 µM
3) CN/C(N)=N\c1ccc(C(=O)N(Cc2ccc(C(F)(F)F)cn2)C(C)c2ccc(F)cc2)cn1 (stereo not shown) [Compound 118] | 0.454 µM
4) CN/C(N)=N\c1ccc(C(=O)N(Cc2ccc(C(F)(F)F)cn2)[C@@H]2CCCc3ccccc32)cn1 [Compound 96] | 0.022 µM

====

# assayed-system: PRMT5-MTA (Homo sapiens)
# Sequence (O14744 whole entry): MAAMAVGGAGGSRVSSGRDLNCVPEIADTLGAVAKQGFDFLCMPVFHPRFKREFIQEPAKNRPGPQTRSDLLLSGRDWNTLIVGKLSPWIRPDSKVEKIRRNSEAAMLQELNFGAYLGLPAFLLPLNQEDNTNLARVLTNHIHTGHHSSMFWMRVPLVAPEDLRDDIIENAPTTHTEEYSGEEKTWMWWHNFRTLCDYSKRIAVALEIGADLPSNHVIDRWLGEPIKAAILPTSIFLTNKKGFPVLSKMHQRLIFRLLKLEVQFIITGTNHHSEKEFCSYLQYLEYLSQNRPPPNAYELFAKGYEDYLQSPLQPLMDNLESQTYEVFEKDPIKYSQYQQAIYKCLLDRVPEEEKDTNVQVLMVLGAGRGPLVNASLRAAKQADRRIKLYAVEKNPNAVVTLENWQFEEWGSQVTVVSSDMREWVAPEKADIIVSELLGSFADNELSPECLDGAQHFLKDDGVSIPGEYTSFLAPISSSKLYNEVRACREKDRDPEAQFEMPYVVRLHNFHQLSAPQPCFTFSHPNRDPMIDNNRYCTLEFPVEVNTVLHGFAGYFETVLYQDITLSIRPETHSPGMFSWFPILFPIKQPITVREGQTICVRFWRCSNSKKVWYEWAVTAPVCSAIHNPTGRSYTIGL
# Sequence (Q9BQA1 whole entry partner): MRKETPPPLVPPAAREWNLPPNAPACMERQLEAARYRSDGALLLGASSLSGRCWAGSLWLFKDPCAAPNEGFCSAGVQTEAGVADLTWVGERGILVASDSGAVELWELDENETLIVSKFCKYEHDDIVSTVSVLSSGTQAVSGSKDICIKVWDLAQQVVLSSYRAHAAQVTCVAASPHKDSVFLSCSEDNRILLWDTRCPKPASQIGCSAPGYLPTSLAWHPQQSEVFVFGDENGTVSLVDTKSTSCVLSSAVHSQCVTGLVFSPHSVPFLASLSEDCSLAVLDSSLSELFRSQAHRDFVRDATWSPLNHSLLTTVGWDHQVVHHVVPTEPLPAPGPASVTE
# assay-text: biochemical
# measurement-context: IC50 (nM), PRMT5+MTA enzyme activity inhibition; PRMT5/MET50 protein 1 nM, 5'-deoxy-5'-adenosine 1 µM, SAM 2.5 µM, Histone H4 substrate 5 nM
recorded-endpoint: IC50 (nM)

1. CNC(N)=Nc1ccc(C(=O)N(Cc2ccc(F)cc2)[C@H](C)c2ccccc2F)cn1 | 6.1
2. CN/C(N)=N\c1ccc(C(=O)N(Cc2ccc3nn(C)cc3c2)[C@H](C)c2ccccc2F)cn1 | 3.1
3. CNC(N)=Nc1ccc(C(=O)N(Cc2ccc(C(F)(F)F)cn2)C(C)c2ccccc2F)cn1 (centres unmarked) | 1.6
4. NC(=Nc1ccc(C(=O)N(Cc2ccc(C(F)(F)F)cn2)C2CCCc3cccnc32)cn1)NO (centres unmarked) | 5.7
5. CC(c1ncccn1)N(Cc1ccc(C(F)(F)F)cn1)C(=O)c1ccc(N=C(N)N)nc1 (centres unmarked) | 2.1
6. CNC(N)=Nc1ccc(C(=O)N(Cc2ccc(C(F)(F)F)cn2)[C@H]2CCc3ccccc32)cn1 | 2.7
7. CNC(N)=Nc1ccc(C(=O)N(C)C2COc3cc(C(F)(F)F)ccc32)cn1 (centres unmarked) | 2
8. CNC(N)=Nc1ccc(C(=O)N(Cc2ccccn2)[C@H](C)c2ccccc2F)cn1 | 3.7
